The values you see were collected from patent EP4628508A1.

- ASSAY SYSTEM: T1, human ILT4-ECD protein (human, UniProt Q8N423 22-460)
- T1 construct: also called HuILT4; LILRB2 (ILT4)
- T1 sequence (Q8N423 other isoform, or with tags, fused parts or gaps limits assumed): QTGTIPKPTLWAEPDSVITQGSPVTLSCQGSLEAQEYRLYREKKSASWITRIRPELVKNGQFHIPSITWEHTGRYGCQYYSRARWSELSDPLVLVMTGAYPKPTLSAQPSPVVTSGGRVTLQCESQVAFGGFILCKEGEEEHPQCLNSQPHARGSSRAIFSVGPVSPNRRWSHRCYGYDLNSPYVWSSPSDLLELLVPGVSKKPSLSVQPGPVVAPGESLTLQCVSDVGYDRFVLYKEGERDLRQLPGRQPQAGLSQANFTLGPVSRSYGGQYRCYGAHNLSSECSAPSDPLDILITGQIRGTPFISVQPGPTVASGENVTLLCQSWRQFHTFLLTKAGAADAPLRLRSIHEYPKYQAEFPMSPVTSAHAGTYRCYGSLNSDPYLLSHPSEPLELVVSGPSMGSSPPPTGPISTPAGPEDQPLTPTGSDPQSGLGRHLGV
- EXPERIMENT DESCRIPTION: BLI (Octet RED96e), antibody on AHC biosensor, HuILT4 at 100/50/25 nM
Measured kon, listed per entry.
All answers are understood in M⁻¹ s⁻¹, so give the number only.

Example results:
PR302261 (antibody, human IgG1, kappa, V domains shown, IgG1; also called PR302261 (IgG1)) VH: EVQLLESGGGLVQSGGSLRLSCAASGFTFSSYAMSWVRQAPGKGLGWVSTISGSGGSAYYADSVKGRFTVSRDNSKKTLYLQMNSLRAEDTAVYFCAILSGDDAFDIWGQGTMVTVSS VL: DVVMTQSPLSLPVTPGEPASISCRSSQSLLRGNGYNYLDWYLQKPGQSPQLLIYLGSNRASGVPDRFSGSGSGTDFTLKISRVEAEDVGIFYCMQALQSPLTFGGGTKVEIKR	520000
PR302264-2 (antibody, human IgG4 S228P, kappa, V domains shown, PTM variant of PR302264, IgG4; also called PR302264-2 (IgG4)) VH: QVQLQQWGAGLLKPSETLSLTCAVYGGSLSGYYWSWIRQPPGKGLEWIGEIAHSGGTNYNPSLKSRVTISVPTSKNQFSLKLTSVTAADTAVYYCARGQQQLDWYFDLWGRGTLVTVSS VL: EIVMTQSPATLSVSPGERATLSCRASQNIYSHLVWYQQKPGQAPRLLIYGASTRATGIPARFSGSGSGTEFTLTITSLQSEDFTVYYCQQYNDWPPITFGQGTRLEIRR	472000

API: the following record is the query input.
Memo: PR001795 (antibody, V domains shown, also called control antibody PR001795 (Merck: US20180298096); MK-4830) VH: EVQLQQWGAGLLKPSETLSLTCAVYGGSFSGYYWSWIRQPPGKGLEWIGEINHAGSTNYNPSLKSRVTISVDTSKNQFSLKLSSVTAADTAVYYCARLPTRWVTTRYFDLWGRGTLVTVSS VL: ESVLTQPPSVSGAPGQRVTISCTGSSSNIGAGYDVHWYQQLPGTAPKLLIYGDSNRPSGVPDRFSVSKSGASASLAITGLQAEDEADYYCQSFDNSLSAYVFGGGTQLTVL , reported kon: 431000
